- System: SSG-resistant L. donovani Ld39 promastigotes
- Assay Protocol: microbe, parasite or virus in culture
- Type: cell-based, Leishmania donovani
- Assay Setup: Leishmania donovani, 72 h, read-out: IC50(μM) of synthetic flavonoid, Ld39
For each entry below, report its IC50 value.

Here is how some compounds turned out for IC50.
>>> measured_value("O=c1cc(-c2ccc(OCCOCCOc3ccc(-c4cc(=O)c5c(O)cc(O)cc5o4)cc3)cc2)oc2cc(O)cc(O)c12")
"> 200 µM"
>>> measured_value("O=c1cc(-c2ccc(OCCOCCOCCOCCO)cc2)oc2cc(O)cc(O)c12 [Compound 10b]")
"> 200 µM"
>>> measured_value("O=c1cc(-c2ccc(OCCOCCOCCOCCOCCOCCOCCOCCOc3ccc(-c4cc(=O)c5c(O)cc(O)cc5o4)cc3)cc2)oc2cc(O)cc(O)c12")
"14 µM"
>>> measured_value("O=c1cc(-c2ccc(OCCOc3ccc(-c4cc(=O)c5c(O)cc(O)cc5o4)cc3)cc2)oc2cc(O)cc(O)c12")
"117 µM"

# per-item lookup of IC50; items listed below
1. O=c1cc(-c2ccc(OCCOCCOCCOc3ccc(-c4cc(=O)c5c(O)cc(O)cc5o4)cc3)cc2)oc2cc(O)cc(O)c12
2. O=c1cc(-c2ccc(OCCOCCOCCOCCOCCOCCOCCOCCOCCOc3ccc(-c4cc(=O)c5c(O)cc(O)cc5o4)cc3)cc2)oc2cc(O)cc(O)c12

Result:
11 µM
14 µM
